- Test system: NCI-H460 lung
Your response should consist of one outcome taken from TRUE = active, FALSE = inactive

Solved cases (3 shown):
- Brc1ccc([I+]c2ccc(Br)cc2)cc1: FALSE
- CCCCCCCCCCCCCCCc1cc(O)ccc1N: FALSE
- CCOC(=O)CC1(O)C=CC(=O)C=C1: FALSE

--- query ---
Enquiry: What did the test return for "O=C1/C(=C/c2ccccc2Cl)N=C(c2ccccc2)N1Cc1ccco1" ?
Return: FALSE

---

- Test system: DMS 114 small cell lung
- assay: NCI tumour cell line growth inhibition, 48 h
test_readout: TGI

• Nc1ccc(Nc2nc(F)nc(-c3c4ccccc4c4n3CCS4)n2)cc1 = 37.7 µM

Enquiry: State its TGI for this compound: "Cc1ccccc1C(=O)Oc1ccc(Oc2ccccc2)cc1"
Return: > 100 µM

Enquiry: Identify measured TGI corresponding to CC(=O)OC1CCn2nnc(COC(=O)NC(C)C)c21 (configuration not stated)
Return: > 100 µM

Enquiry: Determine its reported TGI: "Cc1c(C(=O)/C=C/c2ccc(Cl)cc2)[n+](=O)c2ccccc2n1[O-]"
Return: 15.1 µM

---

- System: SF-295 CNS
- assay: NCI tumour cell line growth inhibition, 48 h
test_readout: TGI

Worked cases, answers included:
- CC[C@@]1(O)C(=O)OCc2c1cc1n(c2=O)Cc2c-1nc1ccccc1c2CC[Si](C)(C)C: 0.0544 µM
- CCC1CC2CN3CCc4c([nH]c5c(-c6c(OC)ccc7c8c([nH]c67)[C@]6(C(=O)OC)CC7CC(CC)C6N(CC8)C7)c(O)ccc45)[C@](C(=O)OC)(C2)C13 (some centres undefined): 36.1 µM
- CC(=O)c1ccc(Oc2ccc(/C(C)=N\N=C(N)N)cc2)cc1: 6.18 µM

Enquiry: Provide measured TGI value, entry: COc1ccc(C2SCC(=O)N2c2ccc(-c3ccc(-n4c(-c5ccccc5)nc5ccccc5c4=O)cc3)cc2)cc1 (centres undefined)
Return: > 100 µM

Enquiry: Indicate its recorded TGI; the compound in question is "COC(=O)CC1(CNC(=O)OCc2ccccc2)OCCO1"
Return: > 100 µM

Enquiry: Quote TGI reported for "O=C1c2ccccc2C(=O)N1c1ccc(S(=O)(=O)Nc2ncccn2)cc1" please.
Return: > 100 µM

Enquiry: Output measured TGI for this item: Nc1nc(Cl)cc(NCC2(CO)CCC(Cc3ccccc3)C2)n1 (centres undefined)
Return: > 100 µM

Enquiry: Look up TGI of O=C1c2ccccc2CC12Cc1cc3c(cc1C2=O)CCC3 (centres undefined) and report it.
Return: > 100 µM

Enquiry: Give recorded TGI. "O=C(O)CSCC(=O)Nc1ccc2cccc3c2c1CC3"
Return: > 100 µM

Enquiry: Quick one: give measured TGI for "CN1CCN(c2ccc3c4c(cccc24)C(=O)N(CCN2CCN(CCCN4CCN(CCN5C(=O)c6cccc7c(N8CCN(C)CC8)ccc(c67)C5=O)CC4)CC2)C3=O)CC1"
Return: 13.7 µM

Enquiry: State, in one line, measured TGI of "COC(=O)CCC(=O)c1c(C)[nH]c(/C=C2\N=C(c3ccc[nH]3)C=C2OC)c1C"
Return: 4.08 µM

---

# TGI values compiled below
- Tested on: MCF7 breast
- assay: NCI tumour cell line growth inhibition, 48 h

Completed entries (count: 6):
* CCP(=O)(CC)C(Cl)(Cl)C(O)C(C)(C)C (centres undefined) | > 100 µM
* CC[N+]1(C)CCC(O)(c2ccc(Cl)cc2)C(C(=O)c2ccc(Cl)cc2)C1 (centres undefined) | 2.71 µM
* CCC[C@H](N[C@@H]1CCc2cc(F)cc(F)c2C1)C(=O)Nc1cn(C(C)(C)CNCC(C)(C)C)cn1 | > 56.7 µM
* CC(C)OP(=O)(CN(C)/C(F)=N\C(F)(F)F)OC(C)C | > 100 µM
* O=C1/C(=C/c2ccccc2Cl)N=C(c2ccccc2)N1Cc1ccco1 | > 100 µM
* O=C1c2ccccc2-c2nnc(-c3ccccc3)cc21 | > 10 µM

Enquiry: Please give measured TGI of the following entry: "Cc1ccc(/C=C/C(=O)c2c([O-])on[n+]2-c2ccccc2)cc1"
Return: 19 µM

Enquiry: Report measured TGI; entry is CC1(c2ccc(Cl)cc2)CC(c2ccc(Cl)cc2)=C(C#N)C(=C(C#N)C#N)N1 (centres undefined)
Return: 49.8 µM

Enquiry: Output measured TGI for this item: "O=C(Nc1cc(C(F)(F)F)ccc1F)Nc1n[nH]c2ccccc12"
Return: > 100 µM

Enquiry: Tell me its TGI given COP(C)(=O)/C(Cc1ccccc1)=N\O (centres undefined) as the entry.
Return: > 100 µM

Enquiry: Check the records and state TGI for "O=C(c1cc(Cl)cc(Cl)c1)N(C(=S)OC12CC3CC(CC(C3)C1)C2)c1ccccc1"
Return: > 100 µM

Enquiry: Please report the measured TGI for "O=C1c2ccccc2C(=O)N1c1ccc(S(=O)(=O)Nc2ncccn2)cc1"
Return: > 100 µM

Enquiry: Recall and state the measured TGI for "CCCN(CCC)c1ccc(CO)c(C)c1" .
Return: > 100 µM

Enquiry: Item "O=C(CN1CCN(C(=O)OCc2ccccc2)CCN(CC(=O)N2CCCCC2)CCN(C(=O)OCc2ccccc2)CC1)N1CCCCC1" : provide TGI
Return: 44.6 µM
